These measurements were taken from the supplement of paper PMC6555819.

tested on: PPARg:RXRa (NR concentration 180 nM, RXRa partner concentration 90 nM); assay: PBM binding z-score (relative to random genomic background probes); higher = stronger binding; sequences stand for … in GC…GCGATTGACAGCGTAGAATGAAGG
Respond with true for PBM binding z-score values of 3 and above, false for values below.

>>> df
                         item_sequence  assigned_class
 0  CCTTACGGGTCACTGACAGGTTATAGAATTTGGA            true
 1  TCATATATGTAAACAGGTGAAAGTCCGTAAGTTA           false
 2  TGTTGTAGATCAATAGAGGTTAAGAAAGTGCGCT           false
 3  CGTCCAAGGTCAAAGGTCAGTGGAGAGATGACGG            true
 4  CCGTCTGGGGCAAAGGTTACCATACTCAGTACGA            true
 5  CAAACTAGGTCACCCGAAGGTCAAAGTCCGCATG            true
 6  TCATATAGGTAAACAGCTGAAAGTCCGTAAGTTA           false
 7  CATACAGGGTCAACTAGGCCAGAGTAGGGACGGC            true
 8  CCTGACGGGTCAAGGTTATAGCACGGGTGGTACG           false
 9  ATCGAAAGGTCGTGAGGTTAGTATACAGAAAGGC            true
10  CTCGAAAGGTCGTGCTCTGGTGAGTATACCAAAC           false
11  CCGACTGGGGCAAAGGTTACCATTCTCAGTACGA            true
12  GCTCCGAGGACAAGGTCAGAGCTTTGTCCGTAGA           false
13  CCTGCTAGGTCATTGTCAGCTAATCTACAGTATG           false
14  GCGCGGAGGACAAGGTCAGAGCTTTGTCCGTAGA           false
15  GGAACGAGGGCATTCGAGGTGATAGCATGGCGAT           false
16  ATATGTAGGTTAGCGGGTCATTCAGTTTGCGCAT            true
17  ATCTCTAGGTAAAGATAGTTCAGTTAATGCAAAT           false
18  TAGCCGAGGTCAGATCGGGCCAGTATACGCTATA            true
